- ASSAY_TARGET: PI3K-delta (Homo sapiens, UniProt O00329)
- Construct: Millipore 14-604
- Sequence (O00329 whole entry): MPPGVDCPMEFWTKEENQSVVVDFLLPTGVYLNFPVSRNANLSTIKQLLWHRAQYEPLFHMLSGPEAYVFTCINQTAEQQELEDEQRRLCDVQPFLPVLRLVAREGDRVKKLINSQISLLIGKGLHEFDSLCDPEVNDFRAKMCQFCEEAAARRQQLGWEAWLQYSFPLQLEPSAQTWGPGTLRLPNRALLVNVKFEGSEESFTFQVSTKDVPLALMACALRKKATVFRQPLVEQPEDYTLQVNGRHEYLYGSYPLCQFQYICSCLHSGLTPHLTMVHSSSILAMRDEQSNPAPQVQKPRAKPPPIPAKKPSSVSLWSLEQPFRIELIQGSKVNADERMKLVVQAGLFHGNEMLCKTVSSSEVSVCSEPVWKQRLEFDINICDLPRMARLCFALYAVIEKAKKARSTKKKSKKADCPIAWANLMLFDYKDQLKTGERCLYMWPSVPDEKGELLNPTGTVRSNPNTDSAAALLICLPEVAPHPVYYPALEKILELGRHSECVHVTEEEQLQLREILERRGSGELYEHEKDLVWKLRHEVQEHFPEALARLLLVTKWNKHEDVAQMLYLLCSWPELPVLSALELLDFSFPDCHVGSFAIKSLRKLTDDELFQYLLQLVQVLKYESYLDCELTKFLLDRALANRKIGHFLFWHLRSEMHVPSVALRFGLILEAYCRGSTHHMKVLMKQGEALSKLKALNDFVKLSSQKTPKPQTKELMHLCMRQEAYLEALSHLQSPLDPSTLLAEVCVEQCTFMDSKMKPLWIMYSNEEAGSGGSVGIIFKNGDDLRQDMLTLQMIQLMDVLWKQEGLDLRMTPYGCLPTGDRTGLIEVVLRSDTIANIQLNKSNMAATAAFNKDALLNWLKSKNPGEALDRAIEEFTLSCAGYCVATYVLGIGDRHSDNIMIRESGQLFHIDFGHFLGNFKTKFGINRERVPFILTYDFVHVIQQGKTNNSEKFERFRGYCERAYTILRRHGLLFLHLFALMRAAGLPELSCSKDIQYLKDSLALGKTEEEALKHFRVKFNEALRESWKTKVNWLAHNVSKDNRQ
- Sequence (P27986 whole entry partner): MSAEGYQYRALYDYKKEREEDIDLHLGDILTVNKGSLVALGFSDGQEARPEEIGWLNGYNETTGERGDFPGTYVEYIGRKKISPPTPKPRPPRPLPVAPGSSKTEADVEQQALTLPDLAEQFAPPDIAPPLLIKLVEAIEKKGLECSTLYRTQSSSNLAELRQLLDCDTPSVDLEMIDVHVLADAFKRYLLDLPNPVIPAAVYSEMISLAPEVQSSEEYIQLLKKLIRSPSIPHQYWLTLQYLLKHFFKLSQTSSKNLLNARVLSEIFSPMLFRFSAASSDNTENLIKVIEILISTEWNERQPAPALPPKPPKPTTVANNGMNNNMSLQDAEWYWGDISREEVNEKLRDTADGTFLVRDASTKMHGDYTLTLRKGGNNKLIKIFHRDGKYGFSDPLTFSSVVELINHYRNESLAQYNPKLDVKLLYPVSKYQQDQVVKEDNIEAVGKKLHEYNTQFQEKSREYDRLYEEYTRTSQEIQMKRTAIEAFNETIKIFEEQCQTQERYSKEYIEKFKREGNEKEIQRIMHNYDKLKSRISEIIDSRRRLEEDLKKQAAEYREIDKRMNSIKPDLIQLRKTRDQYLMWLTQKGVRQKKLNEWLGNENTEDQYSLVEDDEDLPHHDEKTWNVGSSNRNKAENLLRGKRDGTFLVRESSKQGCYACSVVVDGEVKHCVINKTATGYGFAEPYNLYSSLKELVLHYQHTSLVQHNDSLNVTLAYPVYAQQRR
- METHOD_DESCRIPTION: HTRF PI3K biochemical assay, delta isoform
- CONDITION_NOTES: form screened (neutral or TFA salt) given, read-out: PI3Kdelta IC50
log10 of IC50 values, listed per item
Please interpret these as log10 of IC50 where IC50 is in nM.

# count of solved cases: 5
>>> value_measured("CCn1c(-c2cnn(CC(F)(F)F)c2)nc2c(N[C@H]3CCN(C(=O)C4CC4)C3)ncnc21")
0.08
>>> value_measured("CCn1c(C(C)(C)C)nc2c(N[C@H]3CCN(C(=O)C4CC4)C3)ncnc21")
2.18
>>> value_measured("CCn1c(-c2cnc(C)nc2)nc2c(NC3CN(C(C)C)CC34CC4)ncnc21 (centres unmarked)")
1.98
>>> value_measured("CCC(=O)N1CC[C@H](Nc2ncnc3c2nc(-c2cncc(C(C)(C)O)c2)n3C)C1")
0.30
>>> value_measured("CCn1c(-c2cnc(C)nc2)nc2c(N[C@H]3CCN(c4cccc(NC)n4)C3)ncnc21")
0.36

Query: Please indicate log10 of IC50 recorded for CCn1c(C(=O)NCC(F)(F)F)nc2c(N[C@H]3CCN(C(=O)C4CC4)C3)ncnc21
Result: 0.83

Query: Please indicate log10 of IC50 recorded for CCn1c(C(=O)N(C)CC(F)(F)F)nc2c(N[C@H]3CCN(C(=O)C4CC4)C3)ncnc21
Result: 2.36
